Dear all, this message contains pIC50 results, target or system Cyclin-dependent kinase 2/G1/S-specific cyclin-E1 (Homo sapiens).
pIC50: −log10 of the molar value.
Assay metric: pIC50

[[record]]
molecular_string = "COCCNS(=O)(=O)c1ccc(Nc2ncc(Sc3ccccc3)c(-c3cnc4ccccn34)n2)cc1"
assay_metric = "pIC50"
censoring_qualifier = "<"
observed_value = 5.00

[[record]]
molecular_string = "CCSc1ccc2ncc(-c3ccnc(Nc4ccc(S(=O)(=O)NCCOC)cc4)n3)n2c1"
assay_metric = "pIC50"
censoring_qualifier = ">"
observed_value = 8.52

[[record]]
molecular_string = "COCCN(C)S(=O)(=O)c1ccc(Nc2nccc(-c3cnc4cccnn34)n2)cc1"
assay_metric = "pIC50"
censoring_qualifier = "="
observed_value = 6.22

[[record]]
molecular_string = "COCCNS(=O)(=O)c1ccc(Nc2nccc(-c3c(C)nc4cccnn34)n2)cc1"
assay_metric = "pIC50"
censoring_qualifier = "="
observed_value = 8.52

[[record]]
molecular_string = "COCCNS(=O)(=O)c1ccc(Nc2nccc(-c3cnc4ccc(Br)cn34)n2)cc1"
assay_metric = "pIC50"
censoring_qualifier = ">"
observed_value = 8.52

